Target: human Melanin concentrating hormone receptor 1 (hMCHr1) (Homo sapiens)
Construct: membranes)
Sequence (Q99705 whole entry): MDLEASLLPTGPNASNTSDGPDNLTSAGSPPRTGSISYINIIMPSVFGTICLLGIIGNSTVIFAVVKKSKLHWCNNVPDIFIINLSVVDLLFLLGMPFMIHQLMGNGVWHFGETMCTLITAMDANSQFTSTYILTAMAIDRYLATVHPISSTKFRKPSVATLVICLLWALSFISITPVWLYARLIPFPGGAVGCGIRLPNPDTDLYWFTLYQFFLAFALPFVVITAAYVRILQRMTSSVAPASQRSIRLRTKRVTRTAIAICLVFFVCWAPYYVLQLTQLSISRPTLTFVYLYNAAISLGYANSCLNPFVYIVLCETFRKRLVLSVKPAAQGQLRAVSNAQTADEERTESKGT
Experiment: MCHr1 receptor radioligand binding (125I-MCH, membranes from CHO-K1 cells)
Conditions: 125I-MCH displacement, CHO-K1 membranes expressing hMCHr1, 30° C. 60 minutes; read-out: IC50 in human MCHr binding assay
measured.property: pIC50
Scale for pIC50: -log10 of concentration given in mol/L; no unit attached.

Quick one: pIC50 for COc1cc(-n2nnc3cc(-c4ccc(Cl)cc4)sc3c2=O)ccc1N1CC[C@@H](O)C1 [Example 1] ?
7.96

====

Molecular target: hERG (Homo sapiens, UniProt Q12809)
Sequence (Q12809 whole entry): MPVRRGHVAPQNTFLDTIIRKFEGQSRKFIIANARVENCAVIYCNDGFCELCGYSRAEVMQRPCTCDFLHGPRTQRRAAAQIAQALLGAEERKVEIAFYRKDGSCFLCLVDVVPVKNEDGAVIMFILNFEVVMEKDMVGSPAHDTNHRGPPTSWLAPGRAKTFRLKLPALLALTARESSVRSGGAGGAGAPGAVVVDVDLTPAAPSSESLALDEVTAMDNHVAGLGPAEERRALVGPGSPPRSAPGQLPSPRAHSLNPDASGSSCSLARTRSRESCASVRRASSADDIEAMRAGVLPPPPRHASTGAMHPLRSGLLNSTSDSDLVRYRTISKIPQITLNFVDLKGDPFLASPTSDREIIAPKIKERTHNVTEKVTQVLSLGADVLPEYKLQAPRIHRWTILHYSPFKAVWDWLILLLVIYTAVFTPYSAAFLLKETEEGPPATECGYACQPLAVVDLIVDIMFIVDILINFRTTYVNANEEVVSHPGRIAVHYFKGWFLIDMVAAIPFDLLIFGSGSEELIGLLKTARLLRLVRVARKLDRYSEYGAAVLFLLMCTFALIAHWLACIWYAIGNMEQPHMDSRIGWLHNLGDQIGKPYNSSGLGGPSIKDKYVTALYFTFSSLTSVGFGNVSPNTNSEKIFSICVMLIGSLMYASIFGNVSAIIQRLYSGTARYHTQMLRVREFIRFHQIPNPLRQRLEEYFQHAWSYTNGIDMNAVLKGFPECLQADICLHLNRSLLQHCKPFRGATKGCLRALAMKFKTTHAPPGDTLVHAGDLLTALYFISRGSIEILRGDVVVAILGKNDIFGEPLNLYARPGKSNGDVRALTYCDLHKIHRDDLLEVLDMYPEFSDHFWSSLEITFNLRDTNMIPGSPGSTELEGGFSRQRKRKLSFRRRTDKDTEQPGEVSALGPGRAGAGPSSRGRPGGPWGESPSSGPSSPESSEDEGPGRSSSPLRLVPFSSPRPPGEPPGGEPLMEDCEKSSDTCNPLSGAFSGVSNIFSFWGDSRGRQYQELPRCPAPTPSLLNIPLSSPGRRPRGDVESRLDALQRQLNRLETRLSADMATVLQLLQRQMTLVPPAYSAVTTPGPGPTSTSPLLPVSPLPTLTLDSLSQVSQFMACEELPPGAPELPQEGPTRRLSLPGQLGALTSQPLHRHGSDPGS
Test: hERG activity (planar-array-based voltage clamp, modified Kiss et al. method)
pIC50: −log10 of the molar value.
measured.property: pIC50

Quick one: pIC50 for COc1cc(-n2nnc3cc(-c4ccc(Cl)cc4)sc3c2=O)ccc1N1CC[C@@H](O)C1 [Example 1] ?
< 5.30
